Origin of values: patent US20080306285A1

# test protocol: Pharmacokinetics of THC IV bolus in Beagle dogs
# Format: in vivo
# measurement setup: female, dog, venous plasma, 0.9 mg, IV injection 0.9 mg THC, subject 103
assay readout: AUC(0-inf) (ng·h/mL)
Express your answer in ng·h/mL, writing the number without its unit.

Ask: Give AUC(0-inf) for CCCCCc1cc(O)c2c(c1)OC(C)(C)[C@@H]1CCC(C)=C[C@@H]21 [THC, Δ^9-tetrahydrocannabinol]
Reply: 139

###

# test protocol: Pharmacokinetics of THC IV bolus in Beagle dogs
# Type: in vivo
# measurement setup: both sexes, dog, venous plasma, 0.9 mg, IV injection 0.9 mg THC, mean of 4 dogs
assay readout: AUC(0-inf) (ng·h/mL)
Respond numerically; units are ng·h/mL and should not be typed.

Ask: Provide only the value of recorded AUC(0-inf) for CCCCCc1cc(O)c2c(c1)OC(C)(C)[C@@H]1CCC(C)=C[C@@H]21 [THC, Δ^9-tetrahydrocannabinol]
Reply: 142

###

# test protocol: Pharmacokinetics of THC IV bolus in Beagle dogs
# Type: in vivo
# measurement setup: male, dog, venous plasma, 0.9 mg, IV injection 0.9 mg THC, subject 102
assay readout: half-life
Give your result as the value with the unit written after it.

Ask: Complete the entry with half-life for CCCCCc1cc(O)c2c(c1)OC(C)(C)[C@@H]1CCC(C)=C[C@@H]21 [THC, Δ^9-tetrahydrocannabinol]
Reply: 1.62 h

###

# test protocol: Pharmacokinetics of THC IV bolus in Beagle dogs
# Assay type: in vivo
# measurement setup: male, dog, venous plasma, 0.9 mg, IV injection 0.9 mg THC, subject 102
assay readout: AUC(0-inf) (ng·h/mL)
Your answer is read as ng·h/mL, so omit the unit and give the number.

Ask: Supply AUC(0-inf) value. Item: CCCCCc1cc(O)c2c(c1)OC(C)(C)[C@@H]1CCC(C)=C[C@@H]21 [THC, Δ^9-tetrahydrocannabinol]
Reply: 146

###

# test protocol: Pharmacokinetics of THC aerosol by inhalation in Beagle dogs
# Assay type: in vivo
# measurement setup: female, Beagle, dog, venous plasma, inhaled or intranasal, 0.93 mg, inhalation 0.93 mg THC + 0.11 THCA, venous plasma THC, subject 104
assay readout: AUC(0-inf) (ng·h/mL)
Enter your answer as a number in ng·h/mL; do not include the unit.

Ask: Give the measured AUC(0-inf) for CCCCCc1cc(O)c2c(c1)OC(C)(C)[C@@H]1CCC(C)=C[C@@H]21 [THC, Δ^9-tetrahydrocannabinol]
Reply: 92.6

###

# test protocol: Pharmacokinetics of THC aerosol by inhalation in Beagle dogs
# Assay type: in vivo
# measurement setup: Beagle, dog, plasma (venous), inhaled or intranasal, 0.93 mg, inhalation 0.93 mg THC + 0.11 THCA, venous plasma THC, subject 104
assay readout: Cmax (ng/mL)
Answer in ng/mL, number only, no unit symbol.

Ask: Look up Cmax of CCCCCc1cc(O)c2c(c1)OC(C)(C)[C@@H]1CCC(C)=C[C@@H]21 [THC, Δ^9-tetrahydrocannabinol] and report it.
Reply: 253

###

# test protocol: Pharmacokinetics of THC IV bolus in Beagle dogs
# Assay type: in vivo
# measurement setup: female, dog, venous plasma, 0.9 mg, IV injection 0.9 mg THC, subject 104
assay readout: half-life (min)
Output spec: scalar in min, unitless text.

Ask: Tell me measured half-life for CCCCCc1cc(O)c2c(c1)OC(C)(C)[C@@H]1CCC(C)=C[C@@H]21 [THC, Δ^9-tetrahydrocannabinol] please.
Reply: 36.6

###

# test protocol: Pharmacokinetics of THC aerosol by inhalation in Beagle dogs
# Type: in vivo
# measurement setup: both sexes, Beagle, dog, plasma (venous), inhaled or intranasal, 0.93 mg, inhalation 0.93 mg THC + 0.11 THCA, venous plasma THC, mean of 4 dogs
assay readout: Tmax (min)
Respond with the bare value in min.

Ask: Look up Tmax of CCCCCc1cc(O)c2c(c1)OC(C)(C)[C@@H]1CCC(C)=C[C@@H]21 [THC, Δ^9-tetrahydrocannabinol] and report it.
Reply: 2.3

###

# test protocol: Pharmacokinetics of THC aerosol by inhalation in Beagle dogs
# Format: in vivo
# measurement setup: Beagle, dog, plasma (venous), inhaled or intranasal, 0.93 mg, inhalation 0.93 mg THC + 0.11 THCA, venous plasma THC, subject 102
assay readout: Tmax (min)
Report as a plain number; the unit min is understood.

Ask: Give the value of Tmax reported for the following: CCCCCc1cc(O)c2c(c1)OC(C)(C)[C@@H]1CCC(C)=C[C@@H]21 [THC, Δ^9-tetrahydrocannabinol]
Reply: 2

###

# test protocol: Pharmacokinetics of THC IV bolus in Beagle dogs
# Type: in vivo
# measurement setup: female, dog, venous plasma, 0.9 mg, IV injection 0.9 mg THC, subject 103
assay readout: Cmax (ng/mL)
Numeric only. Scale: ng/mL

Ask: Give the measured Cmax for CCCCCc1cc(O)c2c(c1)OC(C)(C)[C@@H]1CCC(C)=C[C@@H]21 [THC, Δ^9-tetrahydrocannabinol]
Reply: 1410

###

# test protocol: Pharmacokinetics of THC IV bolus in Beagle dogs
# Assay type: in vivo
# measurement setup: both sexes, dog, venous plasma, 0.9 mg, IV injection 0.9 mg THC, mean of 4 dogs
assay readout: Tmax (s)
Write the value in s as a bare number.

Ask: Identify measured Tmax corresponding to CCCCCc1cc(O)c2c(c1)OC(C)(C)[C@@H]1CCC(C)=C[C@@H]21 [THC, Δ^9-tetrahydrocannabinol]
Reply: 22.8

###

# test protocol: Pharmacokinetics of THC IV bolus in Beagle dogs
# Format: in vivo
# measurement setup: female, dog, venous plasma, 0.9 mg, IV injection 0.9 mg THC, subject 104
# Description: Two weeks after dosing by inhalation, the same dogs were given a 0.9 mL (adjusted to match the aerosol output measured in the pre- and post-dose aerosol quality testing) bolus IV injection of THC (1 mg/mL THC and sodium ascorbate) in 0.9% NaCl aqueous solution. All blood samples measured 0.5 mL and were collected in plastic vials containing K2EDTA as the anticoagulant. The vials were placed on wet ice until centrifugation to recover the plasma. […]
assay readout: Cmax (µg/mL)
API: value field is a number in µg/mL; no unit string.

Ask: # return recorded Cmax for input CCCCCc1cc(O)c2c(c1)OC(C)(C)[C@@H]1CCC(C)=C[C@@H]21 [THC, Δ^9-tetrahydrocannabinol]
Reply: 1.23

###

# test protocol: Pharmacokinetics of THC aerosol by inhalation in Beagle dogs
# Format: in vivo
# measurement setup: male, Beagle, dog, venous plasma, inhaled or intranasal, 0.93 mg, inhalation 0.93 mg THC + 0.11 THCA, venous plasma THC, subject 101
assay readout: AUC(0-inf) (µg·h/mL)
Give a bare numeral; the unit µg·h/mL is implied.

Ask: Report AUC(0-inf), nothing else, for this compound: CCCCCc1cc(O)c2c(c1)OC(C)(C)[C@@H]1CCC(C)=C[C@@H]21 [THC, Δ^9-tetrahydrocannabinol]
Reply: 0.0994

###

# test protocol: Pharmacokinetics of THC IV bolus in Beagle dogs
# Format: in vivo
# measurement setup: both sexes, dog, venous plasma, 0.9 mg, IV injection 0.9 mg THC, mean of 4 dogs
assay readout: half-life
Number plus unit, in that order.

Ask: Give the value of half-life reported for the following: CCCCCc1cc(O)c2c(c1)OC(C)(C)[C@@H]1CCC(C)=C[C@@H]21 [THC, Δ^9-tetrahydrocannabinol]
Reply: 50.8 min

###

# test protocol: Pharmacokinetics of THC aerosol by inhalation in Beagle dogs
# Assay type: in vivo
# measurement setup: Beagle, dog, plasma (venous), inhaled or intranasal, 0.93 mg, inhalation 0.93 mg THC + 0.11 THCA, venous plasma THC, subject 101
assay readout: Cmax (µg/mL)
Dear colleague, please return just the value in µg/mL, with no unit written.

Ask: Using the record for CCCCCc1cc(O)c2c(c1)OC(C)(C)[C@@H]1CCC(C)=C[C@@H]21 [THC, Δ^9-tetrahydrocannabinol] , state its measured Cmax.
Reply: 0.341

###

# test protocol: Pharmacokinetics of THC IV bolus in Beagle dogs
# Type: in vivo
# measurement setup: female, dog, venous plasma, 0.9 mg, IV injection 0.9 mg THC, subject 104
assay readout: AUC(0-inf) (ng·h/mL)
Just the number in ng·h/mL, nothing appended.

Ask: Report AUC(0-inf), nothing else, for this compound: CCCCCc1cc(O)c2c(c1)OC(C)(C)[C@@H]1CCC(C)=C[C@@H]21 [THC, Δ^9-tetrahydrocannabinol]
Reply: 118

###

# test protocol: Pharmacokinetics of THC aerosol by inhalation in Beagle dogs
# Assay type: in vivo
# measurement setup: both sexes, Beagle, dog, venous plasma, inhaled or intranasal, 0.93 mg, inhalation 0.93 mg THC + 0.11 THCA, venous plasma THC, mean of 4 dogs
assay readout: AUC(0-inf)

Ask: Let me know recorded AUC(0-inf) for CCCCCc1cc(O)c2c(c1)OC(C)(C)[C@@H]1CCC(C)=C[C@@H]21 [THC, Δ^9-tetrahydrocannabinol] , thanks.
Reply: 92.5 ng·h/mL
